What pIC50 was measured for each of the following?
- Test system: L02
- ASSAY OVERVIEW: Cytotoxicity against human LO2 cells assessed as reduction in cell viability after 24 hrs by CCK8 assay
- Format: cell-based
- STUDY CONDITIONS: L02, 24 h
Please express pIC50 as -log10 of the molar concentration.

Reported pIC50 of C=CC(C)(C)n1cc(C[C@@H]2NC(=O)[C@H](C/C=C/C)NC(=O)[C@H](CC(C)C)N3C(=O)[C@H](C[C@@H](CO)[C@H]3O)N(C)C(=O)[C@H](C)NC(=O)[C@H](Cc3ccc(O)c([N+](=O)[O-])c3)NC(=O)[C@H](CC(C)C)N(C)C2=O)c2ccccc21 : 4.80

Reported pIC50 of C=C[C@](C)(CO)n1cc(C[C@@H]2NC(=O)[C@H](C/C=C/C)NC(=O)[C@H](CC(C)C)N3C(=O)[C@H](C[C@@](C)(O)[C@H]3O)N(C)C(=O)[C@H](C)NC(=O)[C@H](Cc3ccc(O)c([N+](=O)[O-])c3)NC(=O)[C@H](CC(C)C)N(C)C2=O)c2ccccc21 : 4.66
